All figures here come from patent US20210040073A1.

- Assay Text: Pharmacokinetics assay in rats after intragastrical administration
- Test Context: both, Sprague-Dawley, rat, plasma, po, 2 mg/kg
Readout Type: Vd/F
The reply must contain the numeric value and, after it, the unit.

Recorded Vd/F of COCc1nnc(N2CC3CC3(c3ccc(F)cc3Cl)C2)n1-c1ccc(OC)nc1 (stereo not shown) [Example 8] , please.
1.94 L/kg

Also, CCOCc1nnc(N2C[C@@H]3C[C@]3(c3ccc(F)cc3Cl)C2)n1-c1ccc(OC)nc1 [Example 6] please.
18 L/kg

Also, COc1ccc(-n2c(COC(F)F)nnc2N2C[C@@H]3C[C@]3(c3ccc(F)cc3Cl)C2)cn1 [Example 11] please.
2.46 L/kg

Also, COCc1nnc(N2C[C@@H]3C[C@]3(c3ccc(F)cc3Cl)C2)n1-c1ccc(OC)nc1 [Example 9] please.
6 L/kg

---

- Assay Text: Pharmacokinetics assay in rats after intragastrical administration
- Test Context: both, Sprague-Dawley, rat, in vivo, po, 2 mg/kg
Readout Type: half-life (h)
Could you give me the number in h? Just the number is fine.

Recorded half-life of CCOCc1nnc(N2C[C@@H]3C[C@]3(c3ccc(F)cc3Cl)C2)n1-c1ccc(OC)nc1 , please.
3.47

---

Items are presented alongside their recorded half-life.
- Assay Text: Pharmacokinetics assay in rats after intragastrical administration
- Test Context: both, Sprague-Dawley, rat, plasma, po, 2 mg/kg
The reply must contain the numeric value and, after it, the unit.

COCc1nnc(N2CC3CC3(c3ccc(F)cc3Cl)C2)n1-c1ccc(OC)nc1 (centres unmarked) [Example 8] = 1.08 h

For the next question, use this molecule.
Recorded half-life of COc1ccc(-n2c(COC(F)F)nnc2N2C[C@@H]3C[C@]3(c3ccc(F)cc3Cl)C2)cn1 [Example 11] , please.
2.86 h

---

- Assay Text: Pharmacokinetics assay in rats after intragastrical administration
- Test Context: both, Sprague-Dawley, rat, plasma, po, 2 mg/kg
Items are presented alongside their recorded AUC.
Could you give me the number in ng·h/mL? Just the number is fine.

// known answers, use as guide
COCc1nnc(N2CC3CC3(c3ccc(F)cc3Cl)C2)n1-c1ccc(OC)nc1 (stereo not shown) [Example 8] = 1980
CCOCc1nnc(N2C[C@@H]3C[C@]3(c3ccc(F)cc3Cl)C2)n1-c1ccc(OC)nc1 [Example 6] = 1060
COCc1nnc(N2C[C@@H]3C[C@]3(c3ccc(F)cc3Cl)C2)n1-c1ccc(OC)nc1 [Example 9] = 2040

For the next question, use this compound.
Recorded AUC of COc1ccc(-n2c(COC(F)F)nnc2N2C[C@@H]3C[C@]3(c3ccc(F)cc3Cl)C2)cn1 [Example 11] , please.
3980

---

- Target System: UniProt:P37288
- Sequence (P37288 whole entry): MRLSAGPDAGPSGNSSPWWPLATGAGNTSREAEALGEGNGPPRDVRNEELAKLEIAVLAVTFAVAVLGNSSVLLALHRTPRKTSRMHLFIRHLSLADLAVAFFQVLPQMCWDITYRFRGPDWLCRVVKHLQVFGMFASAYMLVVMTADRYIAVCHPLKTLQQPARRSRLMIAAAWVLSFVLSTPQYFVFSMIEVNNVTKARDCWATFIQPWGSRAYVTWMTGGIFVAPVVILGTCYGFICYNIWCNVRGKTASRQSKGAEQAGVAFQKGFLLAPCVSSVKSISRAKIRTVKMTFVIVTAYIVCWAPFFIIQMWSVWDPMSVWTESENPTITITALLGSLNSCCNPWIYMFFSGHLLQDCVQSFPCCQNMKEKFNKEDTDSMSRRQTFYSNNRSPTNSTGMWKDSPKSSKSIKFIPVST
- Assay Text: Inhibition activity on human V1aR (Fluo-4 calcium assay, HEK293/human V1aR stably transfected cells, vasopressin 3 nM)
- Test Context: calcium signal
Criterion: IC50 strictly under 2 µM. Met: Criterion met. Not met: Criterion not met.

Take a look at these entries with their results.
COc1ccc(-n2c(CO[C@H]3CCOC3)nnc2N2C[C@@H]3C[C@]3(c3ccc(F)cc3Cl)C2)cn1 [Example 3] = Criterion not met
COCc1nnc(N2CC3CC3(c3ccc(F)cc3Cl)C2)n1-c1ccc(OC)nc1 (stereo not shown) [Example 8] = Criterion not met
COc1ccc(-n2c(C(F)F)nnc2N2C[C@@H]3C[C@]3(c3ccc(F)cc3Cl)C2)cn1 [Example 13] = Criterion met
COc1ccc(-n2c(N3C[C@@H]4C[C@]4(c4ccc(F)cc4Cl)C3)nnc2C(F)(F)F)cn1 [Example 12] = Criterion not met
COc1ccc(-n2c(COC3CCOCC3)nnc2N2C[C@@H]3C[C@]3(c3ccc(F)cc3Cl)C2)cn1 [Example 2] = Criterion not met

Dear reviewer, please state whether COCc1nnc(N2C[C@@H]3C[C@]3(c3ccc(F)cc3Cl)C2)n1-c1ccc2c(c1)OCO2 [Example 5] has IC50 strictly beneath 2 µM.
Criterion met

Also, CCOCc1nnc(N2C[C@@H]3C[C@]3(c3ccc(F)cc3Cl)C2)n1-c1ccc(OC)nc1 [Example 6] please.
Criterion met
